test system: UACC-257; experiment: NCI tumour cell line growth inhibition, 48 h
The source made the active and inactive calls. Rule as the data show it: active = GI50 up to about 1.1 µM and inactive = higher. Where a SMILES comes first, the peptide text is derived from it.
quantity: GI50

>>> print(df.to_string())
                              compound      endpoint_result
0  Cn1c2ccccc2n2c3ccccc3c(=S)c(C#N)c12  > 100 µM (inactive)
1                   NN(CC(=O)O)CC(=O)O  > 100 µM (inactive)

Give GI50 (UACC-257) of the following compound: `COc1cc(/C=C2\N=C(c3ccccc3)N(/N=C/c3cc4cc(C)ccc4nc3Cl)C2=O)ccc1O` 49.8 µM (inactive)

Entry CC(C)(C)OC(=O)CC(NC(=O)OC(C)(C)C)C(=O)Oc1ccc([N+](=O)[O-])cc1 (stereo unspecified) please > 100 µM (inactive)

Entry NC(=O)C1CCCN1C(=O)C(N)Cc1ccccc1 (stereo not drawn) (H-Phe-Pro-NH2; configuration not given here) please > 10 µM (inactive)

Entry `CC1(C)N[PH]2(Nc3ccccc3O2)OC1=O` please > 100 µM (inactive)

Entry `O=C(OCc1ccccc1[N+](=O)[O-])N1c2ccccc2[C@@]23O[C@]24CCC[C@H]3C#C/C=C\C#C[C@H]14` please > 100 µM (inactive)

Entry O=C1c2c[nH]nc2C(c2ccccc2)N1c1ccccc1 (stereo unspecified) please > 10 µM (inactive)

----------
tested on: TK-10; assay: NCI tumour cell line growth inhibition, 48 h
Activity calls are given as the source filed them. No stated cut-off is given here; in the data, active = GI50 up to about 1.1 µM and inactive = higher.
Could you please pick one outcome from this set? T for active, F for inactive

Illustrative cases are given below, each with its answer.
In [3]: df
Out[3]:
                                   compound  cat
0       O=C(N/N=C/c1ccccc1O)N/N=C/c1ccccc1O    F
1  O=C1CCCCCCCCCCC(=O)N2CCOCCOCCN1Cc1cccc(n1)C2    F
2  C/C(Cl)=N/OC(=O)Nc1ccc(F)c([N+](=O)[O-])c1    F
3     C/C(=N\NC(=S)N1CCCCCC1)c1cccc2cccnc12    F
4    COc1ccccc1NC(=S)N/N=C1\C(=O)Nc2ccccc21    F

Write down the call the test reported for this compound. Item: `Cc1cc(-c2nc3cc(F)ccc3s2)ccc1NC(=O)[C@@H](N)CCCCN` T

Entry `Cc1onc(-c2c(F)cccc2Cl)c1C(=O)N[C@@H]1C(=O)N2[C@@H]1SC(C)(C)[C@@H]2C(=O)O` please F

Entry COc1ccc(C2CC(=O)CC(c3ccc(OC)cc3)C23C(=O)NC(=S)NC3=O)cc1 (stereo not given) please F

Entry `CC(=NNC(=S)Nc1cccc(C)c1)c1cccc(C(C)=NNC(=S)Nc2cccc(C)c2)n1` please F

Entry C#CC(O)/C=C/CCCCCCC#CC/C=C\CC#CCCCCCCCCC(O)C#C (stereo not given) please F

----------
test system: DMS-114; assay: NCI tumour cell line growth inhibition, 48 h
Activity calls are given as the source filed them. Rule as the data show it: active = GI50 up to about 1.1 µM and inactive = higher.
Could you please pick one outcome from this set? active, inactive

Write down the call the test reported for this compound. Item: COc1cc(C2c3cc4c(cc3[C@@H](Nc3ccc(N(C)C)cc3)[C@H]3COC(=O)C23)OCO4)cc(OC)c1O (some centres undefined) active

----------
system: T47D; assay: NCI tumour cell line growth inhibition, 48 h
Activity calls are given as the source filed them. Cut-off read from the data, not from the text of the source: active = GI50 up to about 1.1 µM and inactive = higher.
Could you please pick one outcome from this set? active, inactive

                                   compound       cat
0  CC(=O)N1CCN(CCCCN2c3ccccc3Sc3cc(N=[N+]=[N-])ccc32)CC1  inactive

Please find the next compound below.
Write down the call the test reported for this compound. Item: Cc1nc2ccc(S(=O)(=O)O)cc2c(=O)n1-c1ccc(C(=O)NN2C(=O)C(Cl)C2c2ccccc2O)cc1 (stereo not given) inactive

----------
The entries below come with measured GI50 values attached.
tested on: OVCAR-4; experiment: NCI tumour cell line growth inhibition, 48 h
The source made the active and inactive calls. Rule as the data show it: active = GI50 up to about 1.1 µM and inactive = higher.

Example entries begin here.
                                        smi       endpoint_result
0  CCOC(=O)/C(=C\NC(=S)Nc1ccc(OCC)cc1)C(=O)c1ccccc1    79.8 µM (inactive)
1    CCN(CC)CCNc1ccc2ncn3c4ccccc4c(=O)c1c23    2.96 µM (inactive)
2  Cc1cn([C@H]2C=C[C@@H](CO)O2)c(=O)[nH]c1=O  > 1000 µM (inactive)
3   CCCCNC(=O)c1cc2c(cc1Cl)Sc1nccn1S2(=O)=O    43.7 µM (inactive)
4                         CCOC(=O)c1nnsc1NN   > 100 µM (inactive)

Switching to the query record.
Give GI50 (OVCAR-4) of the following compound: `CC(=O)N(C)c1cc(NCc2ccccc2)ccc1OCc1ccccc1` 18.7 µM (inactive)

----------
The entries below come with measured GI50 values attached.
tested on: TK-10; experiment: NCI tumour cell line growth inhibition, 48 h
Activity calls are given as the source filed them. Rule as the data show it: active = GI50 up to about 1.1 µM and inactive = higher.

In [3]: df
Out[3]:
                                   compound  quantity      endpoint_result
0  NCCCCC(N)C(=O)N1CCN(c2nc(N3CCCC3)c3nc(Cl)c(NCc4ccccc4)nc3n2)CC1 (stereo unspecified)      GI50   19.2 µM (inactive)
1  CC(=O)N1N=C(c2c(O)ccc3ccccc23)CC1c1ccc(Cl)cc1 (stereo unspecified)      GI50   30.1 µM (inactive)
2      CCSCCC(N)C(=O)O (stereo unspecified)      GI50  > 100 µM (inactive)
3  Cc1cc(N(CCC#N)CCC#N)ccc1/C=C(\NC(=O)/C=C/c1ccccc1)C(=O)Nc1ccc(Cl)cc1      GI50  > 100 µM (inactive)
4              NC(=O)Nc1n[nH]c(-c2ccccc2)n1      GI50  > 100 µM (inactive)

Need GI50, item `O=P1(c2ccccc2)CCCCC1` > 100 µM (inactive)

Entry `CCOC(=O)n1[nH]c(=O)n(-c2ccccc2)c1=O` please > 100 µM (inactive)

Entry CCOC(=O)N1CCC2(CC1)C[C@@](C(C)=O)(c1ccccc1)C(C)O2 (stereo partly specified) please > 100 µM (inactive)

Entry `CC(=O)NCCCCNCCCNC(C)=O` please > 100 µM (inactive)

Entry `CC(C)(Oc1ccc(C(=O)c2ccc(Cl)cc2)cc1Cl)C(=O)Nc1c(Cl)cccc1Cl` please > 100 µM (inactive)

Entry COC(=O)CCC(=O)C(CC(=O)OC)C(=O)CCC(=O)NCCc1ccccc1 (stereo unspecified) please > 100 µM (inactive)

----------
The entries below come with measured GI50 values attached.
tested on: M14; experiment: NCI tumour cell line growth inhibition, 48 h
Calls of active or inactive are those of the source. No stated cut-off is given here; in the data, active = GI50 up to about 1.1 µM and inactive = higher. Where a SMILES comes first, the peptide text is derived from it. Peptide text beside a SMILES is read from it. * marks the point of attachment. Cbz = O=C(OCc1ccccc1)*; Boc = CC(C)(C)OC(=O)*; OBn = c1ccc(CO*)cc1

Example entries begin here.
compound	GI50
NC(=O)C1CCCN1C(=O)C(N)Cc1ccccc1 (stereo not drawn) (H-Phe-Pro-NH2; configuration not given here)	> 100 µM (inactive)
O=c1sc(-c2nc3ccccc3[nH]2)c(/N=C/c2ccccc2)n1-c1ccccc1	48.9 µM (inactive)

Give GI50 (M14) of the following compound: `Cc1ccc2nc3c(Cl)cc(=O)cc-3sc2c1` 22.1 µM (inactive)

Entry `C/C(CC(=O)CCCC(=O)Nc1ccc(Cl)cc1Cl)=N/NC(=O)CC#N` please > 100 µM (inactive)

Entry COC(=O)C(CCCCNC(=O)OCc1ccccc1)NC(=O)C(CCC(=O)OCc1ccccc1)NC(=O)OC(C)(C)C (stereo not given) (Boc-Glu(OBn)-Lys(Cbz)-OMe; configuration not given here) please > 100 µM (inactive)

Entry COC1=CC2(CC(OC)=C1OC)OC21COc2ccccc2C1=O (stereo not given) please 87.5 µM (inactive)

Entry `COC(=O)c1ccc2c(O)c(O)ccc2c1` please 16.4 µM (inactive)

Entry `COC1=CC(=O)c2c(ccc3ncnc(N)c23)C1=O` please 1.88 µM (inactive)

Entry `CCOC(=O)c1ccc(-n2c(SCC)nc3sc(C)c(C)c3c2=O)cc1` please > 100 µM (inactive)

Entry `CCCCCCNCCc1c[nH]cn1` please > 100 µM (inactive)

----------
test system: HOP-92; assay: NCI tumour cell line growth inhibition, 48 h
Activity calls are given as the source filed them. Rule as the data show it: active = GI50 up to about 1.1 µM and inactive = higher.
Could you please pick one outcome from this set? Y (active), N (inactive)

Illustrative cases are given below, each with its answer.
                                   molecule  cat
0  Brc1ccc2c(c1)C1C(CO2)C(c2ccccc2)=NN1c1ccccc1 (stereo not given)    N
1  Cc1c(C(=O)CC(=O)C(=O)Nc2cccc(C(F)(F)F)c2)[n+]([O-])c2ccccc2[n+]1[O-]    N

Write down the call the test reported for this molecule. Item: `O=c1oc(C(C(F)(F)F)C(F)(F)F)nc2ccccc12` N

Entry `CC(=O)Nc1cc2ccc(=O)oc2cc1Cl` please N

Entry `CCCCCC(=O)OC[n+]1ccc2c(C)c3[nH]c4ccccc4c3c(C)c2c1` please N

Entry `COc1cccc2c1C(=O)c1ccc3cc(CCl)cc(O)c3c1C2=O` please Y

Entry `Cc1cc(C)nc(NS(=O)(=O)c2ccc(Nc3c4ccccc4nc4c(C(=O)NC(CO)(CO)CO)cccc34)cc2)n1` please N

Entry `O=c1c(Sc2c(SCSc3cnc4ccccc4c3Sc3c[nH]c4ccccc4c3=O)cnc3ccccc23)c[nH]c2ccccc12` please N

Entry CC(=O)OC12c3ccccc3-c3ccccc3C1C(C(=O)O)C2(Cl)C(=O)O (stereo not given) please N

Entry COC1=CC2(CC(OC)=C1OC)OC21COc2ccccc2C1=O (stereo not given) please N
